SYSTEM TESTED: human EP3 (isoform VI) (Homo sapiens, UniProt P43115)
Construct: expressed in transfected cells; host or cells: HEK293 (transient)
Sequence (P43115 1-374 isoform P43115-4): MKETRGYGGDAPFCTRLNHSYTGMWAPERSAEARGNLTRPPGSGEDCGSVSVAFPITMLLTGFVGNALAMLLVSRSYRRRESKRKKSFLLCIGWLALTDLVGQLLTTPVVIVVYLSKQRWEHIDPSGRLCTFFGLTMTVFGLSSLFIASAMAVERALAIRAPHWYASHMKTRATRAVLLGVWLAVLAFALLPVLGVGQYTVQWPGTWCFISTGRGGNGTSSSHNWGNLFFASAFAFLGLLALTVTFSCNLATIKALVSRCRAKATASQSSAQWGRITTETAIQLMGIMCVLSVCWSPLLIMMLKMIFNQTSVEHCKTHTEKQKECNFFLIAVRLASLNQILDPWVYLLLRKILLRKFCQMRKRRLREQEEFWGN
ASSAY: In vitro binding to human EP3 ([3H]-PGE2 displacement, membranes)
CONDITION: HEK293 membranes, geometric mean ± SD, read-out: hEP3, Ki
pKi: −log10 of the molar value.
Reported values of pKi for individual entries

input: Give me measured pKi, please, for this compound: Cc1ccc(-c2cccc(CO)c2)cc1C(=O)Nc1c(C)ccc(C(=O)O)c1C
output: < 4.83

input: Give me measured pKi, please, for this compound: Cc1ccc(-c2cccc(CO)c2)nc1C(=O)Nc1c(C)ccc(C(=O)O)c1C
output: < 4.85
